Here, each record is paired with measured melting point data.

>>> measured_result("C[C@H](COc1ccccc1)Nc1nc(F)nc2c1ncn2[C@@H]1O[C@H](CO)[C@@H](O)[C@H]1O")
"148 to 150 °C"
>>> measured_result("CON=C(C(=O)OC)c1ccccc1CSc1nc2ccccc2s1")
"113 to 114 °C"
>>> measured_result("CC(C1CC(c2ccc(C(F)(F)F)cc2)C1)N(O)C(N)=O (stereo not given)")
"147 to 148 °C"
>>> measured_result("CCOC(=O)c1c(C)nn(-c2ccc(F)cc2)c1C")
"59 to 60 °C"
>>> measured_result("CCOc1cc(N)c(Cl)cc1C(=O)NCC1CN(Cc2ccccc2)CCCO1 (stereo not given)")
"180 to 183 °C"
>>> measured_result("CCOC(=O)c1cn(C2CC2)c2cc(C3CCN(C(C)=O)CC3)c(F)cc2c1=O")
"195 to 201 °C"

Consider the compound Cc1ccc(CCCNCC(O)c2cccc(C(F)(F)F)c2)cc1 (stereo not given) and give its measured melting point.
52 to 55 °C

Consider the compound CCN(CC)c1ccc(C2(c3ccc(N(CC)CC)cc3N(CC)CC)OC(=O)c3ccccc32)c(C)c1 (stereo not given) and give its measured melting point.
149 to 151 °C

Consider the compound CC(C)Oc1cc(-n2c(=O)[nH]c(CF)c(F)c2=O)c(F)cc1Cl and give its measured melting point.
152 to 154 °C
